Measured values drawn from ChEMBL document CHEMBL1154137 for this set.

Target: Aromatase (Homo sapiens, UniProt P11511)
Sequence (P11511 whole entry): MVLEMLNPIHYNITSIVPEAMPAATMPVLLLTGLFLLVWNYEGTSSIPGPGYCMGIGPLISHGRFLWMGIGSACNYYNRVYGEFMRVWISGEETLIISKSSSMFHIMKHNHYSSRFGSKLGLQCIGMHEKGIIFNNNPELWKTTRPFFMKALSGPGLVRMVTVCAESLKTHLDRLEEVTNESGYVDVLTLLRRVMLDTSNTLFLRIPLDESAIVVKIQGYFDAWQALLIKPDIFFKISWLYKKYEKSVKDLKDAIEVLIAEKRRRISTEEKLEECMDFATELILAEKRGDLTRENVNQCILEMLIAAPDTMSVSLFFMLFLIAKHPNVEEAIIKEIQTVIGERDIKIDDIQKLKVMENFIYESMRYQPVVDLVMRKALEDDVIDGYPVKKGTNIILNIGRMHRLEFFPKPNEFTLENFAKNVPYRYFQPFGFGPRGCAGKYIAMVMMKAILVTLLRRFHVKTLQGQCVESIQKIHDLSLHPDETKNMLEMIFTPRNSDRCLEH
Assay: Inhibition of human recombinant aromatase
Reported pIC50 values for a set of compounds
As a rule, pIC50 stands for the negative log10 of the concentration, concentration in M.

[[record]]
compound = "Cc1cc2c(c(O)c1-c1ccc3c(c1O)C(=O)C[C@](C)([C@@H]1OC(=O)C[C@@H]1C)O3)C(=O)C[C@@](C)([C@@H]1OC(=O)C[C@H]1O)O2 [MONODICTYOCHROMONE B]"
system = "Aromatase (Homo sapiens, UniProt P11511)"
numeric_result = 4.78


Now turn to the next compound.
What measured pIC50 goes with Cc1cc(O)c2c(c1-c1ccc3c(c1O)C(=O)C[C@](C)([C@@H]1OC(=O)C[C@@H]1C)O3)O[C@](C)([C@@H]1OC(=O)C[C@H]1O)CC2=O [MONODICTYOCHROMONE A] ?
4.61
